Measured melting point of individual entries

See these solved cases before continuing.
O=C(N/N=C/c1ccc(C(F)(F)F)cc1O)c1ccccc1 [Example 294]	215 to 217 °C
CC(C)(C)/C(=N\NC(=O)c1ccccc1)c1ccccc1O [Example 592]	241 to 243 °C
C/C(=N\NC(=O)c1ccccc1)c1cc(F)cc(F)c1O [Example 572]	222 to 225 °C
C/C(=N\NC(=O)c1ccccc1C)c1cc(Cl)cc(Cl)c1O [Example 137]	226 to 230 °C
C/C(=N\NC(=O)c1ccccc1C)c1cc(Br)cc(Br)c1O [Example 540]	221 to 222 °C

Task item: melting point for O=C(N/N=C/c1cccc(C(F)(F)F)c1O)c1ccc(F)cc1 [Example 346] ?
Reply: 187 to 188 °C

Task item: melting point for CNc1ccc(C(=O)N/N=C/c2cc(Cl)cc(Cl)c2O)cc1 [Example 259] ?
Reply: 245 to 253 °C

Task item: melting point for Cc1cccc(C(=O)N/N=C/c2cc(Cl)cc(Br)c2O)c1O [Example 165] ?
Reply: 218 to 221 °C

Task item: melting point for Cc1cc(C)cc(C(=O)N/N=C/c2cc(Br)ccc2O)c1 [Example 107] ?
Reply: 191 to 195 °C

Task item: melting point for O=C(N/N=C/c1c(Cl)ccc(Cl)c1O)c1ccccc1O [Example 372] ?
Reply: 260 to 262 °C

Task item: melting point for COc1ccc(C(=O)N/N=C(\C)c2cc(Cl)ccc2O)cc1 [Example 511] ?
Reply: 203 to 228 °C

* * *

tested on: Leptosphaeria nodorum (LEPTNO); test: In vitro fungitoxicity of hydrazones with and without copper towards Leptosphaeria nodorum (Example 26); type: cell-based; details: Parastagonospora nodorum, 72 h, copper-minus medium; test compound Concn. 0.05 μg/mL; 72 h at 25° C.; read-out: LEPTNO % Inhn. Minus Copper Observed
inhibition of growth at 0.05 µg/mL class ranges: low (below 10%), medium (10% to below 20%), high (20% or more)

O=C(N/N=C/c1cc(Cl)cc(C(F)(F)F)c1O)c1cccc([N+](=O)[O-])c1	medium
C/C(=N\NC(=O)c1cc(Cl)ccc1O)c1cc(Cl)cc(Cl)c1O	high
O=C(N/N=C/c1cc(Cl)cc(C(F)(F)F)c1O)c1ccccc1	medium

Task item: Note: place this compound into its band. Item: COc1cc(O)c(/C(C)=N/NC(=O)c2ccccc2)c(OC)c1
Reply: low

Task item: Note: place this compound into its band. Item: COc1ccc(/C(C)=N/NC(=O)c2ccc(C(F)(F)F)cc2)c(O)c1
Reply: low

Task item: Note: place this compound into its band. Item: COc1ccc(/C(C)=N/NC(=O)c2ccc(Cl)cc2)c(O)c1OC
Reply: medium

Task item: Note: place this compound into its band. Item: C/C(=N\NC(=O)c1ccc(Br)cc1)c1cc(Br)cc(Br)c1O
Reply: medium

Task item: Note: place this compound into its band. Item: O=C(N/N=C/c1cccc(C(F)(F)F)c1O)c1ccc(F)cc1
Reply: high

Task item: Note: place this compound into its band. Item: C/C(=N\NC(=O)c1ccc(Br)cc1)c1cc(Br)ccc1O
Reply: low

Task item: Note: place this compound into its band. Item: O=C(N/N=C/c1cc(C(F)(F)F)cc(Cl)c1O)c1cccc(F)c1
Reply: medium

Task item: Note: place this compound into its band. Item: C/C(=N\NC(=O)c1ccc(Br)cc1)c1cccc(Cl)c1O
Reply: low

* * *

Measured inhibition of growth at 0.05 µg/mL of individual entries
tested on: Leptosphaeria nodorum (LEPTNO); assay: In vitro fungitoxicity of hydrazones with and without copper towards Leptosphaeria nodorum (Example 26); assay type: cell-based; conditions: Parastagonospora nodorum, 72 h, compound 0.05 μg/mL, copper-minus medium, 72 h at 25° C.; read-out: LEPTNO % Inhn. Minus Copper Observed
Number in %, nothing else.

C/C(=N\NC(=O)c1cccc(Br)c1)c1ccccc1O	0
Cc1cc(C)cc(C(=O)N/N=C/c2cc(Br)ccc2O)c1	0
O=C(N/N=C/c1cc([N+](=O)[O-])cc(Br)c1O)c1ccccc1	0
O=C(N/N=C/c1ccc(Cl)c(Cl)c1O)c1ccccc1	0.5
O=C(N/N=C/c1cc(Cl)cc(Cl)c1O)c1ccccc1F	7.8
O=C(N/N=C(\CCc1ccccc1)c1ccccc1O)c1c(Cl)cccc1Cl	0
O=C(N/N=C/c1c(O)cccc1Cl)c1ccccc1	3.5
O=C(N/N=C/c1cc(Cl)cc(Cl)c1O)c1cc(Br)ccc1Cl	16.8
O=C(N/N=C/c1cc(Cl)cc(Cl)c1O)c1ccc([N+](=O)[O-])cc1	0

Please turn your attention to the following entry.
Task item: inhibition of growth at 0.05 µg/mL for CCOc1ccc(C(=O)N/N=C/c2ccccc2O)cc1 ?
Reply: 0.1

* * *

Measured melting point of individual entries

O=C(N/N=C/c1ccc(Cl)c(Cl)c1O)c1ccc(F)cc1	244 to 246 °C

Task item: melting point for C/C(=N\NC(=O)c1ccc(C)cc1)c1cccc([N+](=O)[O-])c1O ?
Reply: 242 to 249 °C

Task item: melting point for COc1ccc(O)c(C(=O)N/N=C(\C)c2cc(Cl)cc(Cl)c2O)c1 ?
Reply: 327 to 331 °C

Task item: melting point for O=C(N/N=C/c1cc(Cl)ccc1O)c1ccc(F)cc1 ?
Reply: 234 to 243 °C

Task item: melting point for O=C(N/N=C/c1cc(Cl)cc(Cl)c1O)c1cc(Cl)ccc1Cl ?
Reply: 189 to 191 °C

Task item: melting point for C/C(=N\NC(=O)c1ccccc1Br)c1cc(C(F)(F)F)ccc1O ?
Reply: 192 to 200 °C

Task item: melting point for COc1ccc(C(=O)N/N=C(\C)c2cc(F)cc(F)c2O)cc1 ?
Reply: 243 to 247 °C
